Data export: IC50 values recorded with Dipeptidyl peptidase 2 (Homo sapiens, UniProt Q9UHL4).
Express the result in nM but write the number alone.

Known results for compounds:
[[record]]
testsmiles = "CCCC[C@@H](NC(=O)[C@H](C)N)B(O)O"
displayunit = "nM"
measurement = 220

[[record]]
testsmiles = "CCCC[C@H](N)C(=O)N1CCC[C@@H]1B(O)O"
displayunit = "nM"
measurement = 2

[[record]]
testsmiles = "CCCCCNC(=O)[C@@H](N)CCN"
displayunit = "nM"
measurement = 2600

[[record]]
testsmiles = "CCCC[C@@H](NC(=O)[C@@H](N)CCN)B(O)O"
displayunit = "nM"
measurement = 0.48

[[record]]
testsmiles = "CCCC[C@@H](NC(=O)[C@@H](N)CCCCN)B(O)O"
displayunit = "nM"
measurement = 3.7


IC50 of CCCC[C@@H](NC(=O)[C@@H](N)CCCN)B(O)O , assay on Dipeptidyl peptidase 2 (Homo sapiens, UniProt Q9UHL4), is 4.7
